assay.method.text: Study 204953 Part 2: repeat dosing for 11 days with RTV QD or 200 mg BID unboosted
Format: in vivo, human
test.conditions: human, plasma, oral, Study Day 11, 100 mg QD + RTV (capsules), Study 204953; geometric mean (95% CI)

compound.string: CC(C)C1=C2[C@H]3CC[C@@H]4[C@@]5(C)CC[C@H](OC(=O)CC(C)(C)C(=O)O)C(C)(C)[C@@H]5CC[C@@]4(C)[C@]3(C)CC[C@@]2([C@@H](O)CN(CCN(C)C)Cc2ccc(Cl)cc2)CC1=O
output.unit: ng/mL
Cmax: 130

* * *

assay.method.text: Study 204953 Part 1A: single doses 50-250 mg API PiB with RTV, healthy subjects
Assay type: in vivo, human
test.conditions: human, plasma, oral, single 100 mg API PiB, fasted, with ritonavir (2 days predosing), median (range)
result.type: Tmax (h)

compound.string: CC(C)C1=C2[C@H]3CC[C@@H]4[C@@]5(C)CC[C@H](OC(=O)CC(C)(C)C(=O)O)C(C)(C)[C@@H]5CC[C@@]4(C)[C@]3(C)CC[C@@]2([C@@H](O)CN(CCN(C)C)Cc2ccc(Cl)cc2)CC1=O
result.type: Tmax
val: 5

* * *

assay.method.text: Study 204953 Part 2: repeat dosing for 11 days with RTV QD or 200 mg BID unboosted
Format: in vivo, human
test.conditions: human, plasma, oral, 100 mg, Study day 1, 100 mg QD + RTV (capsules), τ = 24 hours, Study 204953; median (range); read-out: Cτ
result.type: concentration at 24 h (µg/mL)

compound.string: CC(C)C1=C2[C@H]3CC[C@@H]4[C@@]5(C)CC[C@H](OC(=O)CC(C)(C)C(=O)O)C(C)(C)[C@@H]5CC[C@@]4(C)[C@]3(C)CC[C@@]2([C@@H](O)CN(CCN(C)C)Cc2ccc(Cl)cc2)CC1=O
output.unit: µg/mL
val: 0.0227

* * *

assay.method.text: Study 200912: single dose 100-200 mg, SDD versus nonmicronized API PiB, healthy subjects
Type: in vivo, human
test.conditions: human, plasma, oral, 200 mg, single 200 mg API PiB, fasted, without ritonavir, Study 200912; geometric mean (95% CI); read-out: AUC(0‐∞)

compound.string: CC(C)C1=C2[C@H]3CC[C@@H]4[C@@]5(C)CC[C@H](OC(=O)CC(C)(C)C(=O)O)C(C)(C)[C@@H]5CC[C@@]4(C)[C@]3(C)CC[C@@]2([C@@H](O)CN(CCN(C)C)Cc2ccc(Cl)cc2)CC1=O
AUC, ng·h/mL: 189

* * *

assay.method.text: Study 200912: single dose 100-200 mg, SDD versus nonmicronized API PiB, healthy subjects
Assay type: in vivo, human
test.conditions: human, plasma, oral, 200 mg, single 200 mg SDD PiB, fasted, without ritonavir, Study 200912; geometric mean (95% CI); read-out: AUC(0‐∞)
Description: This was a double‐blind, randomized, placebo‐controlled, single‐dose escalation study to investigate the safety, tolerability, and PK of higher single doses of GSK2838232 (Part A) and to evaluate the relative bioavailability of the SDD and crystalline Active Pharmaceutical Ingredient (API) of GSK2838232 (Part B) in healthy subjects dosed as PiB. […] Extracts were analyzed using HPLC (Shimadzu, Nexera, 30 series) and tandem mass spectrometry detection (HPLC‐MS/MS). […]

compound.string: CC(C)C1=C2[C@H]3CC[C@@H]4[C@@]5(C)CC[C@H](OC(=O)CC(C)(C)C(=O)O)C(C)(C)[C@@H]5CC[C@@]4(C)[C@]3(C)CC[C@@]2([C@@H](O)CN(CCN(C)C)Cc2ccc(Cl)cc2)CC1=O
AUC (ng·h/mL): 381

The reported measurements were obtained from paper PMC5989765.
